Entries annotated with measured growth inhibition
# TEST_NAME: NCI Yeast Anticancer Drug Screen. Data for the mlh1 rad18 strain (AID 175)
# TEST_CONTEXT: S. cerevisiae mlh1 rad18 strain growth inhibition; at 50.0 µM; hits give high values
The panel holds about 79,000 compounds, 15% with a hit somewhere; the sample as a whole holds those more often.
All answers are understood in %, so give the number only.

INSERT INTO measurements (compound, measurement_kind, result_number) VALUES
  ('O=C1CCC(=O)N1n1c(Cc2ccc(Cl)cc2)n[nH]c1=O', 'growth inhibition', -44.6),
  ('COC(=O)c1cc2c(cc1CC1Cc3cc4c(cc3C1=O)CCC4)CCC2 (configuration not stated)', 'growth inhibition', 1.65),
  ('CC/C(=C\c1ccccc1OC)c1ccncc1', 'growth inhibition', 1.55);

Reported growth inhibition of `COC1(OC)C(N(C)C)=C(Cl)C(=O)/C1=C/C=O` : -16.4

The value of growth inhibition measured for the compound CC1OC(=O)C(O)=C1O (configuration not stated) turned out to be -20.6

Entry under test: `Oc1c(Cl)cc(Cl)cc1C=Nc1cc(C(F)(F)F)ccc1N1CCc2ccccc2C1` . Its growth inhibition was 39.6

Summary for this compound, `CC(C)(C)SCCCCO` : growth inhibition is -3.15

Kindly note the recorded growth inhibition for `CC[N+](C)(C)c1ccc(/C=C(/C#N)C(=O)OC)cc1` , which is -1.55

Recorded growth inhibition (compound `CN1CCC(O)(/C=C\C2(O)CCN(C)CC2)CC1` ): -22.1

growth inhibition recorded for this compound, `Cc1nc2cc(N)c(Cl)cc2[nH]1` , is -0.6

Looking up `CC(C)C1OCC=CCO1` , I found its growth inhibition recorded as -3

Lab book: growth inhibition of COc1ccc(C(Cc2cc(OC)c(OC)cc2Br)NC=O)cc1OC (configuration not stated) noted as 31.4

----------
Reported growth inhibition values for the following molecules.
# TEST_NAME: NCI Yeast Anticancer Drug Screen. Data for the cln2 rad14 strain (AID 165);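 also: 0% = growth equal to vehicle treated cultures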
# TEST_CONTEXT: S. cerevisiae cln2 rad14 strain, at 50.0 µM, hits give high values
This is part of a sample that, as a whole, favours compounds with a hit. Of some 79,000 tested, about 15% had one in any assay.
Give the quantity in %, number only.

INSERT INTO results (molecule, scale_unit, result_number) VALUES
  ('O=C(CC(=O)Nc1ccccc1)NNC(Sc1ccccc1)c1cc(N=Nc2ccc(Br)cc2)ccc1O (configuration not stated)', '%', -10),
  ('CC(C)NC(=O)OCc1nnn2c1CCC2', '%', -22.7),
  ('NC(=S)NNC(=O)c1ccccc1', '%', 9.65),
  ('O=C1c2ccccc2C(=O)N1NC1=NCCN1', '%', 11.8),
  ('COc1cccc(C2CC(C)=Nc3c(ccc4c3C(=O)c3ccccc3C4=O)N2)c1O (configuration not stated)', '%', 7.8);

growth inhibition reported for this molecule COC(=O)NC1CC/C=C\CCC1I (configuration not stated) : 12.9

Kindly note the recorded growth inhibition for CC12CCC(=O)[C@@]1(C)CCCC2O (some centres not stated) , which is -34.6

----------
# TEST_NAME: NCI Yeast Anticancer Drug Screen. Data for the sgs1 mgt1 strain (AID 161);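 also: 0% = growth of cultures given vehicle only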
# TEST_CONTEXT: S. cerevisiae sgs1 mgt1 strain, at 50.0 µM, hits give high values
# Procedure: Growth inhibition of yeast strains with defined genetic alterations is measured as a screen for potential anti-cancer activity. Selected strains with alterations in DNA damage repair or cell cycle control were exposed to compounds and growth inhibition was measured relative to vehicle treated controls. The strain used in this assay is sgs1 mgt1
This is part of a sample that, as a whole, favours compounds with a hit. Of some 79,000 tested, about 15% had one in any assay. Where a SMILES comes first, the peptide text is derived from it. The star is where a group is joined. Boc = CC(C)(C)OC(=O)*; NHNH2 = NN*
MEASUREMENT_KIND: growth inhibition (%)
Lab book: enter the figure in %, no units written.

Use the examples below as a reference point.
INSERT INTO assay_data (molecule, measurement_kind, result_number) VALUES
  ('CC(C)(O)C(c1ccccc1)S(=O)(=O)O (stereo not given)', 'growth inhibition', -0.3),
  ('CC(=O)Nc1c(Cl)cc2c(c1Cl)Cc1cc(N(C)C)ccc1-2', 'growth inhibition', 0.5),
  ('COC(=O)c1cc(C)ncc1C#N', 'growth inhibition', -4.7),
  ('CC[Si](C)(C)COC(N)=O', 'growth inhibition', -12.4);

The reported value for `COc1ccc(NC(=O)Nc2cc(C(F)(F)F)ccc2Cl)cc1` in terms of growth inhibition is 5.9

The molecule listed as `CCOC(=O)SC1=NC(C)=CC(C)(C)S1` shows growth inhibition equal to 18.6

Recorded growth inhibition (molecule `CCCC(CCO)(CCO)c1ccccc1` ): -9.65

response.value for CCC(C)C(NC(=O)C(Cc1c[nH]c2ccccc12)NC(=O)OC(C)(C)C)C(=O)NN (stereo not drawn) (Boc-Trp-Ile-NHNH2; configuration not given here) (field: growth inhibition) = 8.5

Measured growth inhibition, Cn1c2ccccc2c(=O)c2c(O)cc3c(c21)CC(C1(C)CO1)O3 (stereo not given) : 72

GET /value?item= `CCc1nc(N)nc(N)c1-c1ccc(Cl)c(NC(C)=O)c1` &field=growth inhibition returns -7.6

In plain terms, `O=C(O)c1nccc2c(O)cccc12` has a documented growth inhibition of -16.1
